# experiment: Volume of distribution at steady state in Sprague-Dawley rat at 0.75 mg/kg, iv or 1.5 mg/kg, po administered as cassette dose by LC-MS/MS analysis
# Type: ADME, organism-based
# run.conditions: in vivo, read-out: Vdss
assay.endpoint: Vd (L/kg)

smiles.input: COC(=O)Nc1ccc2c(c1)NC(=O)C[C@@H](C)/C=C/C[C@H](NC(=O)c1c(F)cc(C)cc1F)c1nc-2c(Cl)[nH]1
assay.endpoint: Vd
recorded.result: 0.3

###

# assay.target: Coagulation factor XI (Homo sapiens, UniProt P03951)
# Sequence (P03951 19-387 limits assumed): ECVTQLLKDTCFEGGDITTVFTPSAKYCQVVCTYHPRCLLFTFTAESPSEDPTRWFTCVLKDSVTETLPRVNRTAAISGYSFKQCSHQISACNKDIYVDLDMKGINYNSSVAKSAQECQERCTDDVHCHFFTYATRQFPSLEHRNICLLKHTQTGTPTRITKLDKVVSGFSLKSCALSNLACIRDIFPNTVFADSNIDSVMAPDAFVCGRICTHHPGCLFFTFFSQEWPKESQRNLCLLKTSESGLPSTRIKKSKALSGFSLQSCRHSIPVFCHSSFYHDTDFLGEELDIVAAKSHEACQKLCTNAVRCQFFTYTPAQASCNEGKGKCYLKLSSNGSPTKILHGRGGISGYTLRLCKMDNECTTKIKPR
# Sequence (P03951 388-625 limits assumed): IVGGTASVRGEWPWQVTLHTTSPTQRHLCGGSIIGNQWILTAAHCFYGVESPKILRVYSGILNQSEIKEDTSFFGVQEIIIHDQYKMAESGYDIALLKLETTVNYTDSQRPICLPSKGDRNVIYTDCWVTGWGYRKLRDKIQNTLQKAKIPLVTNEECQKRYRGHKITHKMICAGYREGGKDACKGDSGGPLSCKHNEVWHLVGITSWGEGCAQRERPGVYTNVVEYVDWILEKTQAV
pKi: −log10 of the molar value.
Mark Not met for pKi values under 8, and Met for everything at or above.

molecule: COC(=O)Nc1ccc2c(c1)NC(=O)CC(C)CC[C@H](NC(=O)/C=C/c1cc(Cl)ccc1-n1cnnn1)c1nc-2c[nH]1 (single isomer, unassigned; diastereomer B)
group: Not met

molecule: COC(=O)Nc1ccc2c(c1)NC(=O)C(C)C/C=C/C[C@H](NC(=O)/C=C/c1cc(Cl)ccc1-n1cnnn1)c1nc-2c[nH]1 (single isomer, unassigned; diastereomer A)
group: Met

molecule: COC(=O)Nc1ccc2c(c1)NC(=O)[C@@H](C(C)C)CCC[C@H](NC(=O)/C=C/c1cc(Cl)ccc1-n1cnnn1)c1nc-2c[nH]1
group: Not met

molecule: COC(=O)Nc1ccc2c(c1)NC(=O)C(C)C/C=C/C[C@H](NC(=O)/C=C/c1cc(Cl)ccc1-n1cnnn1)c1nc-2c[nH]1 (single isomer, unassigned; diastereomer B)
group: Met
